Listing of recorded MIC by entry.
- Test system: M. suipneumoniae ATCC 25095
- ASSAY_OVERVIEW: Anti-mycoplasmal in vitro MIC
- Type: cell-based
- EXPERIMENTAL_PARAMETERS: Mesomycoplasma hyopneumoniae, ATCC25095, 144 h, Friis broth solidified with 0.9% agarose, 6 days incubation at 37°C
Reply numerically in µg/mL, unit not repeated.

Check out these entries, answers already filled in.
COMPOUND | UNITS_SYMBOL | QUANTITATIVE_RESULT
C/C(=C\C(=O)OCc1ccc(C#N)cc1)CC1OCC(CC2OC2C(C)C(C)O)C(O)C1O (stereo not drawn) [Example 3, p-Cyanobenzyl monate A] | µg/mL | 0.25
C/C(=C\C(=O)OCc1cccc(C#N)c1)CC1OCC(CC2OC2C(C)C(C)O)C(O)C1O (stereo not drawn) [Example 2, m-Cyanobenzyl monate A] | µg/mL | 0.05
C/C(=C\C(=O)OCc1cccc(C#N)c1)CC1OCC(C/C=C/C(C)C(C)O)C(O)C1O (stereo not drawn) [Example 5, m-Cyanobenzyl monate C] | µg/mL | 0.5

Sample C/C(=C\C(=O)OCc1ccccc1C#N)CC1OCC(CC2OC2C(C)C(C)O)C(O)C1O (stereo not drawn) [Example 1, o-Cyanobenzyl monate A] — what was its MIC? 0.5

Query (compound): C/C(=C\C(=O)OC(C)c1ccc(C#N)cc1)CC1OCC(CC2OC2C(C)C(C)O)C(O)C1O (stereo not drawn) [Example 4, 1-(p-Cyanophenyl)ethyl monate A] ; field requested: MIC 1

GET /values?readout=MIC&item= C/C(=C\C(=O)OCc1cc(C#N)cc(C#N)c1)CC1OCC(CC2OC2C(C)C(C)O)C(O)C1O (stereo not drawn) [Example 6, 3,5-Dicyanobenzyl monate A] 0.05

====

- System: Strep. faecalis I
- ASSAY_OVERVIEW: Human bacteria MIC
- Assay type: cell-based
- EXPERIMENTAL_PARAMETERS: Enterococcus faecalis, nutrient agar with 5% chocolated horse blood, 18 hours at 37°C
MEASURED_ENDPOINT: MIC (µg/mL)
Field: numeric (µg/mL). Do not append units.

# count of solved cases: 2
COMPOUND | TGT | QUANTITATIVE_RESULT
C/C(=C\C(=O)OCc1cccc(C#N)c1)CC1OCC(CC2OC2C(C)C(C)O)C(O)C1O (stereo not drawn) [Example 2, m-Cyanobenzyl monate A] | Strep. faecalis I | 100
C/C(=C\C(=O)OCc1cc(C#N)cc(C#N)c1)CC1OCC(CC2OC2C(C)C(C)O)C(O)C1O (stereo not drawn) [Example 6, 3,5-Dicyanobenzyl monate A] | Strep. faecalis I | 100

In the following, a different compound is considered.
Data request, read-out MIC, for C/C(=C\C(=O)OCc1ccc(C#N)cc1)CC1OCC(CC2OC2C(C)C(C)O)C(O)C1O (stereo not drawn) [Example 3, p-Cyanobenzyl monate A] 100

====

- Test system: Strep. uberis SPU1
MEASURED_ENDPOINT: MIC (µg/mL)
Please reply with the bare figure in µg/mL and do not write the unit itself.

Under Strep. uberis SPU1: MIC value of C/C(=C\C(=O)OCc1ccccc1C#N)CC1OCC(CC2OC2C(C)C(C)O)C(O)C1O (stereo not drawn) [Example 1, o-Cyanobenzyl monate A] ? 0.156

Strep. uberis SPU1 / MIC / C/C(=C\C(=O)OC(C)c1ccc(C#N)cc1)CC1OCC(CC2OC2C(C)C(C)O)C(O)C1O (stereo not drawn) [Example 4, 1-(p-Cyanophenyl)ethyl monate A] : value? 1.25
